B1: CPEB3 Ribozyme (parent)
chain: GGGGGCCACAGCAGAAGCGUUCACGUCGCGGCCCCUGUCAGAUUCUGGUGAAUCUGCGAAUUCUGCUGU

Variants of: B1
experimentNotes: self-cleavage, relative activity (ratio to wild type); higher = more cleavage; co-transcriptional
endpoint: self-cleavage

{"columns": ["mutationDescriptor", "recordedValue"],
 "data": [
  ["C18A U55C", 0.21],
  ["G1C U61A", 0.253],
  ["G41C A52G", 0.609],
  ["G48U C54A", 0.994],
  ["G11A C35G", 0.352],
  ["G37C G41C", 0.126],
  ["C18A C24G", 0.186],
  ["U36C G50A", 0.948],
  ["C9U G50A", 1.02],
  ["A13G G17C", 0.052],
  ["U36A G37C", 0.198],
  ["G11A U49C", 0.903],
  ["U38C C63A", 0.71],
  ["C35G U49A", 0.444],
  ["G1A U61A", 0.0967],
  ["U43G U62A", 0.529],
  ["C35A C45G", 0.179],
  ["G3U C12U", 0.169],
  ["A23C U46G", 0.962],
  ["C12A G37A", 0.187],
  ["G56C C63U", 0.709],
  ["G3A C9U", 0.886],
  ["C6G C22G", 0.0649],
  ["C35U U44G", 0.835],
  ["A10U G14U", 0.654],
  ["A51U C57A", 0.374],
  ["G28U C34G", 0.219],
  ["C27A C29U", 0.21],
  ["C18G A51U", 0.207],
  ["C22A A59U", 0.198],
  ["U26C U55G", 0.74],
  ["A42U C63G", 0.533],
  ["C9A C63A", 0.953],
  ["U21C G56C", 0.426],
  ["C27U U49A", 0.442],
  ["A8G G48C", 0.954],
  ["G47U C63U", 1.01],
  ["G68C U69C", 1.1],
  ["A40C G68U", 0.806],
  ["C45U U61G", 0.897],
  ["A23G C27G", 0.175]
]}

Data origin: the RNAGym collection of RNA variant scans (doi:10.7554/elife.80360)
